- test.system: human GSK3α (Homo sapiens)
- Construct: Full length human GSK3α or GSK3B expressed as N-terminal GST fusion proteins; GST (N); purchased Carna Biosciences (Japan); host or cells: baculovirus host
- Sequence (P49840 whole entry, the tested form may be a part): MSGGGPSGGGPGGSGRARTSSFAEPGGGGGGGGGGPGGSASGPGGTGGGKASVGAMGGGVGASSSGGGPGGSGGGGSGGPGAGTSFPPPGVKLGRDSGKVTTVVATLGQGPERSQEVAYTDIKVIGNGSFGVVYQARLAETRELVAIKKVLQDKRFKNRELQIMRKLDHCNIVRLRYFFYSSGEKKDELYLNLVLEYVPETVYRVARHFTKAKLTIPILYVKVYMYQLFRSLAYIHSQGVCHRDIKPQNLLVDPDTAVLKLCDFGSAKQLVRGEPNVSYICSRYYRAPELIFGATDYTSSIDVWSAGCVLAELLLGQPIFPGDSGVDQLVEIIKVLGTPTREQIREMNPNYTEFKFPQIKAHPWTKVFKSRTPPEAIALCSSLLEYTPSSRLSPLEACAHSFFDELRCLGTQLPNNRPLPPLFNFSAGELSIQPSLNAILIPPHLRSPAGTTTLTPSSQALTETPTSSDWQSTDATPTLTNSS
- experiment.notes: In vitro enzymatic activity assay, GSK3α
- Format: biochemical
- run.parameters: 1.0 mM ATP, 1.0 μM peptide substrate, 120 min, 25° C, read-out: Enzyme GSK3α (IC50)
- Experimental: Full length human GSK3α or GSK3B expressed as N-terminal GST fusion proteins in baculovirus host were purchased from Carna Biosciences (Japan). The kinase was pre-incubated with ATP (adenosine-5′-triphosphate) for 45 min, then incubated with tested compounds for another 45 min in assay buffer that contains 100 mM HEPES (N-2-hydroxyethylpiperazine-N′-2-ethanesulfonic acid), pH 7.5, 10 mM MgCl2, 1.0 mM DTT, and 0.015% Briji-35. […] IC50 value was determined from the 4-parameter logistic curve fitting.
Counter-ions that a name gives are not always drawn.
readout.name: IC50 (nM)
Kindly provide the numeric value in nM only, without the unit symbol.

Consider the following illustrative entries.
compound	test.system	unit.of.measurement	value
Cc1cc(C(F)F)cc(C)c1-n1cnc(N)c(C(=O)Nc2cncc(C3CCCC(C)N3)c2)c1=O (single isomer, unassigned)	human GSK3α (Homo sapiens)	nM	10
COCc1cc(Cl)c(-n2cnc(N)c(C(=O)Nc3cncc([C@@H](C)N)c3)c2=O)c(Cl)c1 (single isomer, unassigned) [Example 67]	human GSK3α (Homo sapiens)	nM	2.1

## Task Give the value of IC50 reported for the following: COCc1cc(C)c(-n2cnc(N)c(C(=O)Nc3cncc([C@H]4CCCCN4)c3)c2=S)c(C)c1 [Example 163, trifluoroacetate]
## Result 5.6

## Task For COC[C@@H](N)c1cccc(NC(=O)c2c(N)ncn(-c3c(C)cc(OC)cc3Cl)c2=O)c1 (atropisomer, axis not shown) , write its IC50.
## Result 3.6

## Task Answer with the recorded IC50 of C[C@@H](N)c1cncc(NC(=O)c2c(N)ncn(-c3c(Cl)cc(OC4CC4)cc3Cl)c2=O)c1 (single isomer, unassigned) only.
## Result 2.8

## Task Specify IC50 for "CCOc1c(CN)cccc1NC(=O)c1c(N)ncn(-c2c(Cl)cccc2Cl)c1=O" and stop.
## Result 11.7

## Task Please report the measured IC50 for "COCc1cc(Cl)c(-n2cnc(N)c(C(=O)Nc3cncc(C4(N)CCC4)c3)c2=O)c(Cl)c1"
## Result 5.1

Origin of values: patent US20260327191A1
